The origin of these recorded values is patent US20050282743A1.

# Target: PDZ protein (GST-PDZ fusion) (Homo sapiens, UniProt Q9P202)
# Construct: made in house; host or cells: E. coli (DH5alpha, BL21 or JM109)
# Sequence (Q9P202 1-907): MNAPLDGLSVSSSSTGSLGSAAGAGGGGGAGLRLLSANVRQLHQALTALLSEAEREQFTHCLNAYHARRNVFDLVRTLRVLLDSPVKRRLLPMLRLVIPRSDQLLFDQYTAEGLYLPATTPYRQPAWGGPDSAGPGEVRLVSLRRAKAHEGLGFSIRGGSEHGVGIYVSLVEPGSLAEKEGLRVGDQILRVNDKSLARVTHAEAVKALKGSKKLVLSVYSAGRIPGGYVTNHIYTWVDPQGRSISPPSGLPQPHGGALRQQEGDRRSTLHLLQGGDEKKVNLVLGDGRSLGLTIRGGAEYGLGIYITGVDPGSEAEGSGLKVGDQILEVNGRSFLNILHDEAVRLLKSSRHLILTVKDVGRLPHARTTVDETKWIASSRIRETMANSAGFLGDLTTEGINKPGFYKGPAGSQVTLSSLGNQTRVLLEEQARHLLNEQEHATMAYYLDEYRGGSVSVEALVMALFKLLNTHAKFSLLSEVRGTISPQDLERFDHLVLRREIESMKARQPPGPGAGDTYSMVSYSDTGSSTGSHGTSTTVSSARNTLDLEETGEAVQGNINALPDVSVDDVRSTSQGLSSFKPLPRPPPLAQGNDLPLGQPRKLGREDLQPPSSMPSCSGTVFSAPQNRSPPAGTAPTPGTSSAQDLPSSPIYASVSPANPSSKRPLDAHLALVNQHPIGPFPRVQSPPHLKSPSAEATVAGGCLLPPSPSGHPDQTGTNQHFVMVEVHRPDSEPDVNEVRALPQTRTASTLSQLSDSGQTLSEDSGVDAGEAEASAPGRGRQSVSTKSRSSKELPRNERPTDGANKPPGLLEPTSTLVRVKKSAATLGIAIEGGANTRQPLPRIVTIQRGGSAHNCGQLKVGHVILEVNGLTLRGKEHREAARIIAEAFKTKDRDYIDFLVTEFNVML
# Method: G' assay (10 uM PL peptide), results of TABLE 7 and TABLE 12
# Assay type: binding
# Conditions: PDZ KIAA1526, PDZ Domain 1
Ends that are not written are not given here. * marks the point of attachment. Biotin = O=C1N[C@H]2[C@H](CS[C@H]2CCCCC(=O)*)N1
Collected Classification values appear next to each entry.

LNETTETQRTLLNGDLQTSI (Biotin-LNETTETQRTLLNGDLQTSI) [SSTR2 (somatostatin recepor 2)] :: 1 (A450 nm 0-1)

Task: Can you look up the measured Classification of SSPTYRALLLQGPSQSSSEA (Biotin-SSPTYRALLLQGPSQSSSEA) for me?
Result: 1 (A450 nm 0-1)

Task: Can you look up the measured Classification of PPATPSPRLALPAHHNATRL (Biotin-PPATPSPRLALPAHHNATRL) [Na+/Pi cotransporter 2] for me?
Result: 1 (A450 nm 0-1)

* * *

Collected Classification values appear next to each entry.
# Target: PDZ protein (GST-PDZ fusion) (Homo sapiens)
# Construct: made in house; host or cells: E. coli (DH5alpha, BL21 or JM109)
# Method: G' assay (10 uM PL peptide), results of TABLE 7 and TABLE 12
# Type: binding
# Conditions: PDZ PAR3, PDZ Domain 3
Ends that are not written are not given here. * marks the point of attachment. Biotin = O=C1N[C@H]2[C@H](CS[C@H]2CCCCC(=O)*)N1

Here is how some sequences turned out for Classification.
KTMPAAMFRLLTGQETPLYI (Biotin-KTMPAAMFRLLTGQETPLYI) [MINT-2] :: 5 (A450 nm of 4 more than 2× repeated)
LLNVLQRQELGDGLDDEIAV (Biotin-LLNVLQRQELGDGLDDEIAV) :: 1 (A450 nm 0-1)
QGDPALQDAGDSSRKEYFI (Biotin-QGDPALQDAGDSSRKEYFI) [Glycophorin C] :: 2 (A450 nm 1-2)
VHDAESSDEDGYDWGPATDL (Biotin-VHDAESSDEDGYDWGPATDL) [zona occludens 3 (ZO-3)] :: 1 (A450 nm 0-1)
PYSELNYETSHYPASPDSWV (Biotin-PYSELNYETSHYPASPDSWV) [catenin - delta 2] :: 1 (A450 nm 0-1)

Now take the following sequence into account.
Task: Can you look up the measured Classification of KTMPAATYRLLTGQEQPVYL (Biotin-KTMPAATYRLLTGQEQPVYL) [MINT-3] for me?
Result: 1 (A450 nm 0-1)
